Reported pIC50 on BTK (Homo sapiens, UniProt Q06187) for assorted compounds, compiled from publications.
Sequence (Q06187 whole entry): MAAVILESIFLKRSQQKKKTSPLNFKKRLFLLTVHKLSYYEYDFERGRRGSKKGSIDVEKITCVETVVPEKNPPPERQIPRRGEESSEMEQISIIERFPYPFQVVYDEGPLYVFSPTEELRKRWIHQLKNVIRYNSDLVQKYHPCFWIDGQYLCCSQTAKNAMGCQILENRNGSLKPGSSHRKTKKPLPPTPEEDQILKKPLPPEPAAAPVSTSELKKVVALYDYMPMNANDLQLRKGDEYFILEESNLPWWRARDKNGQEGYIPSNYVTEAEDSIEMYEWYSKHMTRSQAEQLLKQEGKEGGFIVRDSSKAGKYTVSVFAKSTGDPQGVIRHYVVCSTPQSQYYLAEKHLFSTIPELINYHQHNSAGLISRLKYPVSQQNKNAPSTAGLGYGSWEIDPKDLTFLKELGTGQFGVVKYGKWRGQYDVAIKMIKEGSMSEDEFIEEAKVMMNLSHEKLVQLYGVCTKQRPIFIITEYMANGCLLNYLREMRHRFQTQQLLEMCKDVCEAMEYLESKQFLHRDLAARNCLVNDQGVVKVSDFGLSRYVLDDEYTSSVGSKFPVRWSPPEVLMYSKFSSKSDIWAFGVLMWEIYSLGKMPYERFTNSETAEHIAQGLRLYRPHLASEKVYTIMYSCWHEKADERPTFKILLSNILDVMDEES
pIC50: −log10 of the molar value.

Sample records with pIC50:
C=CC(=O)Nc1cccc(Sc2nc(Nc3ccc(N4CCN(C)CC4)cc3)nc3ccsc23)c1    ≥ 7.30
O=C(c1ccccc1F)c1c[nH]c2nccc(-c3ccsc3)c12    ≥ 5.00
C=CC(=O)N1CC(n2cc(-c3ccc(Oc4ccccc4)cc3)c3c(N)n[nH]c(=O)c32)C1    6.00 to 8.00

// next entry
Kindly state the measured pIC50 obtained for `C=CC(=O)N1CCC[C@H](Nc2cc(CN3CCN(CC)CC3)cc(Nc3ncc(C)s3)n2)C1` with BTK (Homo sapiens, UniProt Q06187).
8.60
